target-entity: human JAK1 (a.a. 837-1142) (Homo sapiens)
Construct: human JAK1 (a.a. 837-1142); His tag (N); made in house; host or cells: insect cells (baculovirus)
Sequence (P23458 849-1154): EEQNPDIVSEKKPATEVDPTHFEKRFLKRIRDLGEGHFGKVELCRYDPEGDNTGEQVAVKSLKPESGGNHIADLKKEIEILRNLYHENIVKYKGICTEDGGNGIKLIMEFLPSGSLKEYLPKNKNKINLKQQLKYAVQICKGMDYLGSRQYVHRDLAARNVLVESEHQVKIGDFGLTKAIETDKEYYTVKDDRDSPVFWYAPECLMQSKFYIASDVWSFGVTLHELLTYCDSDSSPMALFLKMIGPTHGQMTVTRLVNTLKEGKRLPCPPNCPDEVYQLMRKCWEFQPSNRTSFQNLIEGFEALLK
measurement-protocol: In vitro JAK kinase assay (HTRF, phosphorylation of a biotinylated peptide), JAK1
Type: biochemical
measurement-conditions: method AA1 (90 μM ATP) or AA2 (1000 μM ATP), not stated per value; read-out: JAK1 IC50
observed-property: IC50 (µM)

compound O=C(CC1CCN(c2nc3cccnc3o2)CC1)Nc1ccc2cc1CCc1cncc(c1)Nc1ncc(Cl)c(n1)N2 [Example A158, tris(trifluoroacetate)] , IC50 observed: 0.011

(a) Cc1oncc1C(=O)N1CCC(CC(=O)Nc2ccc3cc2CCc2cncc(c2)Nc2ncc(Cl)c(n2)N3)CC1 [Example A131, bis(trifluoroacetate)]
(b) O=C(CCC1CCNCC1)Nc1ccc2cc1CCc1cccc(c1)Nc1ncc(Cl)c(n1)N2 [Example A116, bis(trifluoroacetate)]
q: Of a and b , which one carries the higher reported IC50? Respond with the label that goes with your answer.
a: b
(b: 0.014 µM, a: 0.0066 µM)
